- assay_explanation: Quantitative High-Throughput drug screen in 47 multiple myeloma cell lines against the NCATS MIPE library collection: AMO1_DSMZ cell viability assay (AID 1918927; also: nearly all actives have a fitted effect of over 30% in size)
- condition_info: AMO1 myeloma cells viability, CellTiter-Glo ATP luminescence, 48 h; series mostly up to 45.8 µM
Inconclusive results are not listed. The source made the active and inactive calls. Calls follow the shape of the dose curve; as a rule, active = well fitted cell-killing curve with a large enough effect; inconclusive = small, poorly fitted or top-dose-only effect, or effect the other way; inactive = no such curve, though single readings can be large or run the other way.
Just give me one of these, please: yes = active, no = inactive

For orientation, consider the following solved cases.
C[C@H](NCc1ccc(OCc2cccc(F)c2)cc1)C(N)=O
yes
CC(=O)[C@]1(O)Cc2c(O)c3c(c(O)c2[C@@H](O[C@H]2C[C@H](N)[C@@H](O)[C@H](C)O2)C1)C(=O)c1ccccc1C3=O
yes
Cn1c(Nc2ccc(C(F)(F)F)cc2)nc2cc(Oc3ccnc(-c4ncc(C(F)(F)F)[nH]4)c3)ccc21
yes

INPUT: Could you kindly confirm the outcome this assay logged for N[C@H]1CN(c2c(F)cc3c(=O)c(C(=O)O)cn(C4C[C@@H]4F)c3c2Cl)CC12CC2 (stereo partly drawn) ?
OUTPUT: no

INPUT: Could you kindly confirm the outcome this assay logged for `C[C@H](NCc1ccc2c(c1)nc(NC(=O)c1ccc(-c3cn[nH]c3)s1)n2CCc1ccccc1)C(C)(C)C` ?
OUTPUT: yes

INPUT: Could you kindly confirm the outcome this assay logged for `C#C[C@]1(O)CC[C@@H]2[C@@H]3CCc4cc(O)ccc4[C@H]3CC[C@@]21C` ?
OUTPUT: yes
